Settings: 323.15 K; 100 kPa; Liquid; Frequency=3 MHz; Single path-length method
± gives the expanded uncertainty stated by the source.
endpoint.label: speed of sound

Study these solved cases before continuing.
- CCC(O)CO (centres undefined): 1379.5 ± 1.4 m/s
- CC(O)CCO (centres undefined): 1458.4 ± 1.4 m/s
- OCCCCO: 1543.7 ± 1.1 m/s

Query: In one line, give reported speed of sound of the entry CCCC(=O)OCC [ethyl butanoate] .
Reply: 1067.1 ± 1 m/s

====

Conditions: 318.15 K; 100 kPa; Liquid; Vibrating tube method
endpoint.label: mass density (kg/m3)
Unit kg/m3 implied. Number only.

- CCCC(=O)OCC [ethyl butanoate]: 852.49
- CC(O)CCO (centres undefined) [1,3-butanediol]: 988.02
- OCCCCO [1,4-butanediol]: 1000.67

Query: Specify measured mass density for CCC(O)CO (centres undefined) [1,2-butanediol] .
Reply: 983.28

====

Settings: 313.15 K; 100 kPa; Liquid; Frequency=3 MHz; Single path-length method
speed of sound values for the compounds below.
The answer is to be given in m/s; state only the numeric part.

Query: Tell me its speed of sound given CCC(O)CO (centres undefined) [1,2-butanediol] as the entry.
Reply: 1408.7

Query: Tell us which speed of sound value is on record for CCCC(=O)OCC [ethyl butanoate]
Reply: 1109

Query: Please give measured speed of sound of the following entry: CC(O)CCO (centres undefined) [1,3-butanediol]
Reply: 1486.2

Query: Kindly indicate its recorded speed of sound. Item: OCCCCO [1,4-butanediol]
Reply: 1567

====

Conditions: 303.15 K; 100 kPa; Liquid; Frequency=3 MHz; Single path-length method
endpoint.label: speed of sound (m/s)
Numeric only. Scale: m/s

• CCCC(=O)OCC [ethyl butanoate] = 1151.1
• OCCCCO [1,4-butanediol] = 1590.3
• CCC(O)CO (centres undefined) [1,2-butanediol] = 1437.9

Query: Provide one value: measured speed of sound of CC(O)CCO (centres undefined) [1,3-butanediol]
Reply: 1514

====

Settings: 313.15 K; 100 kPa; Liquid; Vibrating tube method
endpoint.label: mass density (kg/m3)
Could you give me the number in kg/m3? Just the number is fine.

// worked examples, mass density included
• CC(O)CCO (centres undefined) = 991.49
• OCCCCO = 1003.7
• CCC(O)CO (centres undefined) = 987.11

Query: Give a short answer stating reported mass density for CCCC(=O)OCC [ethyl butanoate] .
Reply: 857.94

====

Settings: 303.15 K; 100 kPa; Liquid; Vibrating tube method
endpoint.label: mass density (kg/m3)
Lab book: enter the figure in kg/m3, no units written.

* CCCC(=O)OCC [ethyl butanoate] | 868.85
* CCC(O)CO (centres undefined) | 994.75
* CC(O)CCO (centres undefined) | 998.41

# context switch: different compound, same mass density
Query: Give mass density for the following compound: OCCCCO
Reply: 1009.77

====

Details: 308.15 K; 100 kPa; Liquid; Frequency=3 MHz; Single path-length method
endpoint.label: speed of sound (m/s)
Respond with the bare value in m/s.

As a guide, the following entries are already answered.
• CC(O)CCO (centres undefined) = 1500.1
• OCCCCO = 1578.6
• CCCC(=O)OCC [ethyl butanoate] = 1130.2

Shift focus to the following entry.
Query: Specify speed of sound for CCC(O)CO (centres undefined) and stop.
Reply: 1423.3

====

Measured speed of sound by item
Conditions: 298.15 K; 100 kPa; Liquid; Frequency=3 MHz; Single path-length method
Express your answer in m/s, writing the number without its unit.

Solved entries:
- CCC(O)CO (centres undefined): 1452.5
- CCCC(=O)OCC [ethyl butanoate]: 1171.8
- OCCCCO: 1601.9

Query: Identify measured speed of sound associated with CC(O)CCO (centres undefined)
Reply: 1527.9

====

Details: 318.15 K; 100 kPa; Liquid; Frequency=3 MHz; Single path-length method
Measured speed of sound of individual entries
Express the result in m/s but write the number alone.

Below are worked cases with known answers.
* OCCCCO [1,4-butanediol] | 1555.3
* CC(O)CCO (centres undefined) [1,3-butanediol] | 1472.3

Query: Please report the measured speed of sound for CCCC(=O)OCC [ethyl butanoate]
Reply: 1088

Query: Name the recorded speed of sound of the molecule listed here: CCC(O)CO (centres undefined) [1,2-butanediol]
Reply: 1394.1

====

Entries and their mass density values follow.
Conditions: 298.15 K; 100 kPa; Liquid; Vibrating tube method
Hi! Could you send only the number? It should be in kg/m3, unit omitted.

Study these solved cases before continuing.
• OCCCCO [1,4-butanediol] = 1012.8
• CC(O)CCO (centres undefined) [1,3-butanediol] = 1001.87
• CCC(O)CO (centres undefined) [1,2-butanediol] = 998.56

Query: Supply mass density value. Item: CCCC(=O)OCC [ethyl butanoate]
Reply: 874.31

====

Conditions: 323.15 K; 100 kPa; Liquid; Vibrating tube method
endpoint.label: mass density (kg/m3)
# unit: kg/m3 | format: bare number

• OCCCCO = 997.63
• CCC(O)CO (centres undefined) = 979.46
• CCCC(=O)OCC [ethyl butanoate] = 847.03

# evaluate next
Query: Give the value of mass density reported for the following: CC(O)CCO (centres undefined)
Reply: 984.56

====

Conditions: 308.15 K; 100 kPa; Liquid; Vibrating tube method
endpoint.label: mass density (kg/m3)
Express your answer in kg/m3, writing the number without its unit.

Record excerpt, results attached:
* CC(O)CCO (centres undefined) [1,3-butanediol] | 994.94
* OCCCCO [1,4-butanediol] | 1006.74
* CCCC(=O)OCC [ethyl butanoate] | 863.4

Now for a further compound.
Query: For the compound CCC(O)CO (centres undefined) [1,2-butanediol] , give its measured mass density value.
Reply: 990.92

src = the NIST ThermoML archive (doi:10.1016/j.jct.2019.05.002)
